We begin with a simple list: items and their reported IC50.
Biological target: human PDE4D catalytic domain (UniProt no. Q08499) (Homo sapiens (Human), UniProt Q08499)
Sequence (Q08499 380-740 limits assumed): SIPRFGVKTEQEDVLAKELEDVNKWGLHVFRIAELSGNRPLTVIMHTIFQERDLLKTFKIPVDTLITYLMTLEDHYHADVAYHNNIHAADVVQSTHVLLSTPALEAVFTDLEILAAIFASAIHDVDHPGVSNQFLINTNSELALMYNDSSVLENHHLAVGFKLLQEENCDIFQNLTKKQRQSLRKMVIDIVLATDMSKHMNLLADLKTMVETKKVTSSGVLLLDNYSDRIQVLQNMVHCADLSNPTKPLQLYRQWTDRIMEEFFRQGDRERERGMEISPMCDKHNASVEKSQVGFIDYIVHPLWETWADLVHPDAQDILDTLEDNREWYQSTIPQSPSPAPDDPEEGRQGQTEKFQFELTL
Test: PDE4 assay (TR-FRET, FAM-cAMP cleavage)
Assay type: biochemical
Details: read-out: PDE4 IC50 range

Worked cases, answers included:
CCc1nn(CC(C)(C)COC(=O)c2cccc(C(=O)N3CCN(C(C)=O)CC3)c2)c2c1C(=O)NCC1(CCOCC1)C2: < 0.1 µM
CCc1nn(CC(C)(C)COC(=O)c2ccc(S(N)(=O)=O)cc2)c2c1C(=O)NCC1(CCOCC1)C2: < 0.1 µM
CCc1nn(CCCCOC(=O)c2ccc(S(=O)(=O)CC)cc2)c2c1C(=O)NCC1(CCOCC1)C2: 0.1 to 0.5 µM

// moving on: another record for IC50
Give the value of IC50 reported for the following: CCc1nn(CC(C)(C)COC(=O)c2ccc(C(C)=O)cc2)c2c1C(=O)NCC1(CCOCC1)C2
< 0.1 µM

Every entry's value here was drawn from patent US10906915B2.
